Target: T1, human IL-4Rα on TF-1 cells (human, UniProt P24394 26-825)
T1 sequence (looked up): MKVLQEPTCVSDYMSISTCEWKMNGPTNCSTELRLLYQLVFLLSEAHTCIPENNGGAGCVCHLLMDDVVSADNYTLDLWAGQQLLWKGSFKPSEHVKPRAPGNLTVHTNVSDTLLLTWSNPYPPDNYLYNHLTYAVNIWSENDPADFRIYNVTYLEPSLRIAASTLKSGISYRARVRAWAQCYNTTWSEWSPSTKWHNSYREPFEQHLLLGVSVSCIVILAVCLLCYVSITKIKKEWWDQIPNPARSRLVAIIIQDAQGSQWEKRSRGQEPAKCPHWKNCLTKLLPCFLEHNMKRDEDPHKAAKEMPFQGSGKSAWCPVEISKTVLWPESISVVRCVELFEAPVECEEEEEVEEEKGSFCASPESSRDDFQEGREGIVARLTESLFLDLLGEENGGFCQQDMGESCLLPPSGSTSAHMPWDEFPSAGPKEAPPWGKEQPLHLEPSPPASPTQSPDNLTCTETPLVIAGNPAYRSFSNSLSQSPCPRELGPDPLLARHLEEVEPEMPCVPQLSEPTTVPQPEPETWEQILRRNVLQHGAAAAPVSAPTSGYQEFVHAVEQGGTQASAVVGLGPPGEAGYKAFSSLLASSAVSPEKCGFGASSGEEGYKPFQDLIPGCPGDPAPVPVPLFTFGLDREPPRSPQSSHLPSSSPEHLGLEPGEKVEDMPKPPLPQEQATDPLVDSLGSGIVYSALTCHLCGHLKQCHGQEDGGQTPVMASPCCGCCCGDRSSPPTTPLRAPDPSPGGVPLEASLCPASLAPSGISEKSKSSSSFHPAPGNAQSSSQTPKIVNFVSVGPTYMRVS
Assay: cell-based or functional assay
assay-readout: IC50 (pM), IL-13 induced TF-1 cell proliferation
Write the numeric value and append its unit.

binder	reported
Antibody 16 IgG (antibody, V domains shown) VH: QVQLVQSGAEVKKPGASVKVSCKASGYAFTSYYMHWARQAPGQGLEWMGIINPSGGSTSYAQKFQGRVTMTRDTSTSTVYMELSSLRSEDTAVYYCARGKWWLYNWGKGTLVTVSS VL: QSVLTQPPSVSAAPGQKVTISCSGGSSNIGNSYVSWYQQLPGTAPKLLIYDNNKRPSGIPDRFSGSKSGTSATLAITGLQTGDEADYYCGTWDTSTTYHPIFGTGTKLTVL	19.5 pM

Lab note: next binder to report on.
Query string: Look up IC50 (pM), IL-13 induced TF-1 cell proliferation for this binder: Antibody 15 IgG (antibody, V domains shown) VH: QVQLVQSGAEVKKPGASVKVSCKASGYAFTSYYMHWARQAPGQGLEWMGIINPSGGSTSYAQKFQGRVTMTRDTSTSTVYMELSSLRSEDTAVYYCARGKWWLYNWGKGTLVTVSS VL: QSVLTQPPSVSAAPGQKVTISCSGGSSNIGNSYVSWYQQLPGTAPKLLIYDNNKRPSGIPDRFSGSKSGTSATLAITGLQTGDEADYYCGTWDTSTHRHPLFGTGTKLTVL
Result string: 17.8 pM
